- Protocol: Plasma exposure in rat CV/R assay
- Format: in vivo
- Settings: male, CD, rat, plasma, iv, 30 mg/kg, rat, IV infusion, 30 mg/kg, 30 min; read-out: Total [plasma]
Here the recorded concentration at 30 min is given for each entry.
Endpoint Label: concentration at 30 min

>>> observed_result("O=S(=O)(Nc1nccs1)c1cc(Cl)c(NCCCCNC[C@H]2CCCN2)cc1F [SSCI-1]")
"252 µM"
>>> observed_result("N#Cc1cc(S(=O)(=O)Nc2cscn2)ccc1Oc1ccc(Cl)cc1-c1ccnn1C1CNC1 [SSCI-5]")
"42.1 µM"

====

- Protocol: Plasma exposure in phrenic nerve activity assay
- Format: in vivo
- Settings: CD, rat, plasma, intravenous, 60 mg/kg, 15 min, read-out: Unbound [plasma]
Endpoint Label: concentration at 15 min (µM)

>>> observed_result("N#Cc1cc(S(=O)(=O)Nc2cscn2)ccc1Oc1ccc(Cl)cc1-c1ccnn1C1CNC1")
10.6
